tested on: Fibroblast; assay: Multiplex assay against human fibroblast; type: toxicity, cell-based; settings: 12 h, 1 µM, compound concentration 1 uM, replicate 1
Catalogue of Population Hoechst High Intensity Objects (%) readings, one per entry.
Report as: number unit

Here's what some known entries look like.
c1cn2cc(-c3ccc4cn[nH]c4c3)nc(Nc3ccc(N4CCOCC4)cc3)c2n1 [ENTOSPLETINIB]: 14%
CN(C)C(=O)/C(C#N)=C/c1ccc(-c2nc3cnc4[nH]ccc4c3n2C2CCCCC2)o1: 19%
Cc1[nH]c(/C=C2\C(=O)Nc3ccc(S(=O)(=O)N(C)c4cccc(Cl)c4)cc32)c(C)c1C(=O)N1CCN(C)CC1: 8%
CC(C)NCC(O)COc1ccc(CCOCC2CC2)cc1.Cl (stereo not drawn) [BETAXOLOL HYDROCHLORIDE]: 4%
CN1CCN(CCOc2cc(OC3CCOCC3)c3c(Nc4c(Cl)ccc5c4OCO5)ncnc3c2)CC1 [SARACATINIB]: 10%

Inquiry: Read off the recorded Population Hoechst High Intensity Objects (%) for CC[C@H](C)C(=O)O[C@H]1C[C@@H](C)C=C2C=C[C@H](C)[C@H](CC[C@@H]3C[C@@H](O)CC(=O)O3)[C@H]21 [LOVASTATIN]
Reply text: 13%

Inquiry: Report Population Hoechst High Intensity Objects (%), nothing else, for this compound: `Cc1cc(C)cc(-c2cnc3cc(Cl)c(-c4cccc(O)c4)cc3c2OCCCN)c1`
Reply text: 16%

Inquiry: Quote Population Hoechst High Intensity Objects (%) reported for `CC(C)(O)CNc1ncc(-c2ccnc(Nc3ccnc(Cl)c3)n2)c(CC2CC2)n1` please.
Reply text: 14%

====

tested on: Fibroblast; assay: Multiplex assay against human fibroblast; type: toxicity, cell-based; details: 48 h, 1 µM, compound concentration 1 uM, replicate 1
# note: boundary value 20% maps to f; Population Hoechst High Intensity Objects (%) below it maps to t

See these solved cases before continuing.
COc1cccc([C@@H](C)NCCCc2ccccc2Cl)c1.Cl [TECALCET HYDROCHLORIDE]: t
Cc1c(-c2ccc(O)cc2)n(Cc2ccc(OCCN3CCCCCC3)cc2)c2ccc(O)cc12 [BAZEDOXIFENE]: t
COc1ncc(-c2ccc3nccc(-c4ccnnc4)c3c2)cc1NS(=O)(=O)c1ccc(F)cc1F [OMIPALISIB]: t
Cc1csc2c(N[C@@H](C)CN3CCN(S(=O)(=O)c4ccc(Cl)c(Cl)c4)CC3)ncnc12: t

Field: next molecule
Inquiry: Consider the molecule `CN(C)C(=O)/C(C#N)=C/c1ccc(-c2nc3cnc4[nH]ccc4c3n2C2CCCCC2)o1` . Is its Population Hoechst High Intensity Objects (%) strictly less than 20%?
Reply text: t

====

tested on: Fibroblast; experiment: Multiplex assay against human fibroblast; type: toxicity, cell-based; settings: 48 h, 10 µM, compound concentration 10 uM, replicate 1
Reported Population Pyknosed Nuclei (%) values for a set of molecules
Answer format: numeric, % implied, no suffix.

The examples below pair each entry with its known result.
CN1CCCC(n2nc(Cc3ccc(Cl)cc3)c3ccccc3c2=O)CC1.Cl (stereo not drawn) [AZELASTINE HYDROCHLORIDE]: 6
OC1(c2ccc(Cl)cc2)CCN(Cc2c[nH]c3ccccc23)CC1: 37
CNCc1ccccc1-c1csc([C@H](C)Nc2nc(C)nc3cc(OC)c(OC)cc23)c1: 15
C[C@@]1(C(=O)Nc2ccc(F)nc2)CCCN1c1nc(Nc2cc(C3CC3)n[nH]2)c2cccn2n1: 24

Inquiry: Retrieve Population Pyknosed Nuclei (%) measured for `CC[C@H](C)C(=O)O[C@H]1C[C@@H](C)C=C2C=C[C@H](C)[C@H](CC[C@@H]3C[C@@H](O)CC(=O)O3)[C@H]21` and print it.
Reply text: 7

Inquiry: Report measured Population Pyknosed Nuclei (%); entry is `C=CC(=O)Nc1cccc(C(=O)Nc2ccc(Nc3cc(-c4[nH]c(SC)nc4C)ccn3)cc2)c1`
Reply text: 14

Inquiry: Assign Population Pyknosed Nuclei (%) to the following record: `CN(C)C(=O)/C(C#N)=C/c1ccc(-c2nc3cnc4[nH]ccc4c3n2C2CCCCC2)o1`
Reply text: 42

Inquiry: Using known records, supply Population Pyknosed Nuclei (%) for COc1cccc([C@@H](C)NCCCc2ccccc2Cl)c1.Cl [TECALCET HYDROCHLORIDE]
Reply text: 8

Inquiry: Output Population Pyknosed Nuclei (%) of `CC(C)(O)CNc1ncc(-c2ccnc(Nc3ccnc(Cl)c3)n2)c(CC2CC2)n1`
Reply text: 21

Inquiry: Please report Population Pyknosed Nuclei (%) for the following molecule: `CNc1nc(NCc2ccc(NS(C)(=O)=O)cc2Cl)cc(-c2ccccn2)n1`
Reply text: 9

Inquiry: Specify reported Population Pyknosed Nuclei (%) for the molecule shown: `c1cn2cc(-c3ccc4cn[nH]c4c3)nc(Nc3ccc(N4CCOCC4)cc3)c2n1`
Reply text: 80
